Experiment: NCI Yeast Anticancer Drug Screen. Data for the mgt1 strain (AID 153)
Details: S. cerevisiae mgt1 mutant growth inhibition; at 33.0 µM; active compounds read high
About 79,000 compounds went through this panel and 15% of them were active in at least one assay; those are over-represented in the sample as a whole.
# label = Condition met if growth inhibition >= 20% else Condition not met

Solved cases (5 shown):
COC1C(O)C(C)OC(OC2C(Oc3cccc4c(O)c5c(=O)oc6ccc(C)c7c(=O)oc(c34)c5c67)OC(C)C(O)C2O)C1O (centres undefined) ... Condition met
CCNC(=O)OCC1C2=C(C(=O)C(C)=C(N)C2=O)N2CC3C(N3C)C12OC (centres undefined) ... Condition met
CN(C)CCSC1=Nc2ccc(Cl)cc2C(c2ccccc2Cl)=NC1 ... Condition not met
C/C(=N\O)c1ccc2ccc3ccccc3c2c1 ... Condition met
NNc1ccccc1Cl ... Condition met

Dear colleague, could you confirm whether O=C(c1ccccc1)C1C(c2ccccc2[N+](=O)[O-])N1C1CCCCC1 (centres undefined) has growth inhibition at or above 20%? Condition met

Say whether c1cc2c(cc1C1OC[C@H]3[C@@H](c4ccc5c(c4)OCO5)OC[C@@H]13)OCO2 (some centres undefined) shows growth inhibition of 20% or more. Condition not met

hey, is growth inhibition for this one >= 20%? COc1ccc(/C=C(/C)[N+](=O)[O-])cc1 Condition met

Does the compound CC1CCC2(NC1)OC1CC3C4CCC5CC(OC6OC(CO)C(OC7OC(CO)C(O)C(OC8OCC(O)C(O)C8O)C7OC7OC(CO)C(O)C(O)C7O)C(O)C6O)CCC5(C)C4CCC3(C)C1C2C (centres undefined) have recorded growth inhibition that is 20% or more? Condition not met

Data origin: PubChem BioAssay (NCI)
